Test system: C33A
Test: Primary qHTS to identify gynecologic anti-cancer compounds using libraries of approved drugs and bioactive compounds (AID 1345084); also: nearly all actives have a fitted effect of over 55% in size
Conditions: Gynecologic cancer cell panel viability, ATPlite luminescence, 48 h; series mostly up to 57.5 µM
Records with an inconclusive call do not appear. Calls of active or inactive are those of the source. Calls follow the shape of the dose curve; as a rule, active = well fitted cell-killing curve with a large enough effect; inconclusive = small, poorly fitted or top-dose-only effect, or effect the other way; inactive = flat fitted curve, though single readings scatter.
Choose one outcome from this list and give only that: y for active, n for inactive

Use these answered entries as a reference point.
{"compound": "C/C=C(\\C)C(=O)O[C@H]1C=C(CO)C(=O)[C@H](OC(C)=O)[C@H]1C(C)C", "class_assignment": "y"}
{"compound": "O=C(Nc1nc2ccc([N+](=O)[O-])cc2s1)C1CCCCC1", "class_assignment": "n"}
{"compound": "Cc1nc(C(=O)N2CCC[C@H]2Cc2nnc(-c3ccccc3)o2)c(-c2ccccc2F)s1", "class_assignment": "n"}
{"compound": "O=C(Nc1ccccc1C(=O)NC1CCCCNC1=O)c1cc2ccccc2s1 (centres undefined)", "class_assignment": "n"}
{"compound": "CN[C@@H]1[C@H](O[C@H]2[C@H](O[C@@H]3[C@@H](O)[C@H](O)[C@@H](N=C(N)N)[C@H](O)[C@H]3N=C(N)N)O[C@@H](C)[C@]2(O)CO)O[C@@H](CO)[C@H](O)[C@H]1O", "class_assignment": "n"}

Which outcome was entered for the compound `COc1ccccc1N1CCN(c2ncnc3n[nH]c(Br)c23)CC1` in this test?
n

Which outcome was entered for the compound `O=C1NC(=O)C(c2cnc3ccccn23)=C1c1cn2c3c(cc(F)cc13)CN(C(=O)N1CCCCC1)CC2` in this test?
n

Which outcome was entered for the compound `CCN(CC)CCCCCCNc1cc(OC)cc2c(C)ccnc12` in this test?
n

Which outcome was entered for the compound `C=C1CCC[C@]2(C)CC/C(=C(/CO)C(=O)OC)C[C@@H]12` in this test?
n

Which outcome was entered for the compound `COc1ccccc1C(=O)Nc1cc2c(cc1N1CCCC1)n(C)c(=O)n2C` in this test?
n

Which outcome was entered for the compound `Cn1ncc(Cl)c1-c1cc(C(=O)N[C@H](CN)Cc2cccc(F)c2)sc1Cl` in this test?
y

Which outcome was entered for the compound `O=S(=O)(NCc1ccccn1)c1ccc(Br)c2ccccc12` in this test?
n

Which outcome was entered for the compound `CCCc1cc(C)[nH]c(=O)c1CNC(=O)c1cc(-c2ccc(N3CCN(C(C)C)CC3)nc2)cc2c1cnn2C(C)C` in this test?
n

Which outcome was entered for the compound `COc1ccc(CCO[C@@H]2O[C@H](CO[C@H]3OC[C@](O)(CO)[C@H]3O)[C@@H](OC(=O)/C=C/c3ccc(O)c(O)c3)[C@H](O[C@@H]3O[C@@H](C)[C@H](O)[C@@H](O)[C@H]3O)[C@H]2O)cc1OC` in this test?
n

Which outcome was entered for the compound `COc1ccc2cc3c(NC(=O)c4ccco4)nn(C)c3nc2c1` in this test?
n

Which outcome was entered for the compound CC1(C=O)CCCC2(C)C1CCC13CC(CO)C(CCC12)C3 (centres undefined) in this test?
n

---

Molecular target: Cytochrome P450 2C9 (Homo sapiens) (UniProt P11712)
Sequence (P11712 whole entry, looked up): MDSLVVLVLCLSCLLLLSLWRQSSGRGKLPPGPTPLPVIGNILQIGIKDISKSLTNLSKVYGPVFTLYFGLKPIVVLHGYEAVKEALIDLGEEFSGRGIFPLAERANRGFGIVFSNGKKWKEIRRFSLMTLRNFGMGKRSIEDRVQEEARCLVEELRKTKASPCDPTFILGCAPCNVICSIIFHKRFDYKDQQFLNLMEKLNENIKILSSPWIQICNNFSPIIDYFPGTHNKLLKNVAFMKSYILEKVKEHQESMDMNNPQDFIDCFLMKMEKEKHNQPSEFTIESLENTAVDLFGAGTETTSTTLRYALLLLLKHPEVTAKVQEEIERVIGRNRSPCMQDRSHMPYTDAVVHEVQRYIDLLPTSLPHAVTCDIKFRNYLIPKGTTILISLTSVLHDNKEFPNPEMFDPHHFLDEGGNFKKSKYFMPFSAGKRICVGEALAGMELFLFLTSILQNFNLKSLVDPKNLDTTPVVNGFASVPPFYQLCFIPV
Assay: Cytochrome P450 family 2 subfamily C member 9 (CYP2C9) small molecule antagonists: luciferase biochemical (cell-free) qHTS assay (AID 1645842); also: potency is read from the fitted curve at half-maximal effect; nearly all actives have a fitted effect of over 55% in size
Conditions: P450-Glo CYP2C9 enzyme assay, luciferin luminescence; series mostly up to 57.4 µM
Records with an inconclusive call do not appear. Calls of active or inactive are those of the source. Calls come from the whole dose curve; as a rule, active = well fitted inhibition curve with a large enough effect in the repeat runs; inconclusive = weak or mixed curves; inactive = no such curve, though single readings can be large or run the other way.
measure_name: Potency

{"entry_smiles": "COc1ccccc1N1CCN(CC[C@@](C)(C(=O)C2CCCCC2)c2ccccc2)CC1", "experimental_target": "Cytochrome P450 2C9 (Homo sapiens) (UniProt P11712)", "measure_name": "Potency", "measurement": "8.49 µM (active)"}

Okay, now this compound:
Complete the entry with Potency for `Cc1ccc(C)c(NC(=O)[C@@H]2CCCN2S(=O)(=O)c2cccc3cccnc23)c1`
6.74 µM (active)

---

Test system: OV90
Experiment: Primary qHTS to identify gynecologic anti-cancer compounds using libraries of approved drugs and bioactive compounds (AID 1345084); also: nearly all actives have a fitted effect of over 55% in size
Settings: Gynecologic cancer cell panel viability, ATPlite luminescence, 48 h; series mostly up to 57.5 µM
Inconclusive results are not listed. Active and inactive are the calls of the source. Calls follow the shape of the dose curve; as a rule, active = well fitted cell-killing curve with a large enough effect; inconclusive = small, poorly fitted or top-dose-only effect, or effect the other way; inactive = flat fitted curve, though single readings scatter.
Choose one outcome from this list and give only that: active, inactive

{"compound": "C=C1C(=O)O[C@@H]2/C=C(\\CO)CC/C=C(/C=O)C[C@H](O)[C@@H]12", "class_assignment": "inactive"}
{"compound": "O=C(NCCCN1CCC2(CC1)OCc1ccccc12)[C@H]1CCCN1Cc1ccccc1", "class_assignment": "inactive"}
{"compound": "CC(C)=C[C@@H]1[C@H](CO[C@@H]2O[C@H](CO)[C@@H](O)[C@H](O)[C@H]2O)C1(C)C", "class_assignment": "inactive"}
{"compound": "COc1ccc(S(=O)(=O)Nc2c(C)cc(C)cc2C)cc1", "class_assignment": "inactive"}
{"compound": "CCOc1ccc(-n2c([C@@H](C)N(Cc3cccnc3)C(=O)Cc3ccc(OC(F)(F)F)cc3)nc3ncccc3c2=O)cc1", "class_assignment": "inactive"}

Alright, here's another compound for you.
Which outcome was entered for the compound `Cn1ncnc1[C@@H]1c2n[nH]c(=O)c3cc(F)cc(c23)N[C@H]1c1ccc(F)cc1` in this test?
inactive

---

Test system: CAOV3
Experiment: Primary qHTS to identify gynecologic anti-cancer compounds using libraries of approved drugs and bioactive compounds (AID 1345084); also: nearly all actives have a fitted effect of over 55% in size
Conditions: Gynecologic cancer cell panel viability, ATPlite luminescence, 48 h; series mostly up to 57.5 µM
Records with an inconclusive call do not appear. Calls of active or inactive are those of the source. Calls follow the shape of the dose curve; as a rule, active = well fitted cell-killing curve with a large enough effect; inconclusive = small, poorly fitted or top-dose-only effect, or effect the other way; inactive = flat fitted curve, though single readings scatter.
Choose one outcome from this list and give only that: active, inactive

Use these answered entries as a reference point.
{"compound": "CN1CCN(C2=Nc3ccccc3Nc3ccc(OS(=O)(=O)C(F)(F)F)cc32)CC1", "class_assignment": "inactive"}
{"compound": "Cc1cc(C(=O)Nc2cc(Nc3ccc4c(/C=C/c5ccccn5)n[nH]c4c3)ccc2F)n(C)n1", "class_assignment": "inactive"}
{"compound": "CCc1cc2c(cc1CC)CC(NCC(O)c1ccc(O)c3[nH]c(=O)ccc13)C2 (stereo not drawn)", "class_assignment": "inactive"}
{"compound": "CCC(C)C(=O)OC1C(C)C2(O)C(C=C(CO)CC3(O)C(=O)C(C)=CC32)C2C(C)(C)C12OC(=O)C(C)C (stereo not drawn)", "class_assignment": "inactive"}
{"compound": "Fc1ccc(N2CCCCC2)c(NC(=S)c2ccncc2)c1", "class_assignment": "inactive"}

Which outcome was entered for the compound C#CC(=O)N(c1ccc(OC)cc1OC)C(C(=O)NCC(=O)OCC)c1cccs1 (stereo not drawn) in this test?
active

Which outcome was entered for the compound `C/C=C/C=C/c1cc2c(C=O)c(O)c(CC=C(C)C)cc2o1` in this test?
inactive

Which outcome was entered for the compound `CC(=O)O[C@H]1C[C@@](O)(C(C)C)[C@@H]2[C@@H](OC(=O)c3ccc(O)cc3)CC(C)=CC[C@@]12C` in this test?
inactive

---

System: HEK293
Assay: Cytotoxic Profiling of Annotated Libraries Using Quantitative High-Throughput Screening (AID 1296008); also: potency is read from the fitted curve at half-maximal effect; nearly all actives have a fitted effect of over 60% in size
Conditions: Five cell lines viability, CellTiter-Glo ATP luminescence, 48-72 h
Records with an inconclusive call do not appear. Active and inactive are the calls of the source. The call rests on the fitted dose curve; in most records, active means well fitted inhibition curve with a large enough effect; inconclusive means small, poorly fitted or top-dose-only effect; inactive means flat fitted curve, though single readings scatter.
Measured Potency of individual entries

Answered cases to consult:
{"molecule": "COc1cc(CCC2=NN=C(NC(=O)c3ccc(N4C[C@@H](C)N[C@@H](C)C4)cc3)C2)cc(OC)c1", "experimental_target": "HEK293", "Potency": "18.4 µM (active)"}
{"molecule": "Cc1nc2ccc(CN(C)c3ccc(C(=O)NC(CCC(=O)O)C(=O)O)s3)cc2c(=O)[nH]1 (stereo unspecified)", "experimental_target": "HEK293", "Potency": "0.0411 µM (active)"}
{"molecule": "Cc1cc(-c2cnc(N)c3c(-c4ccc5scnc5c4)csc23)n(C)n1", "experimental_target": "HEK293", "Potency": "8.2 µM (active)"}
{"molecule": "Cc1cc(-c2nc(-c3ccc(OC(F)(F)F)cc3)no2)nn1Cc1ccnc(N2CCN(C3CC3)CC2)c1", "experimental_target": "HEK293", "Potency": "0.0065 µM (active)"}
{"molecule": "CCc1ccccc1OC[C@@H](O)CN[C@H]1CCCc2ccccc21", "experimental_target": "HEK293", "Potency": "23.1 µM (active)"}
{"molecule": "COC(=O)C1=CO[C@@H](O[C@@H]2O[C@H](CO)[C@@H](O)[C@H](O)[C@H]2O)[C@H]2[C@@H]1C=C[C@]21C=C([C@H](C)OC(=O)/C=C/c2ccc(O)cc2)C(=O)O1", "experimental_target": "HEK293", "Potency": "1.72 µM (active)"}

Complete the entry with Potency for CC(C)CC(=O)c1c(O)cc2c(c1O)C(CC(C)C)C1=C(O2)C(C)(C)C(=O)C(C)(C)C1=O (stereo unspecified)
5.63 µM (active)

Complete the entry with Potency for `CCCC(CCC)C(=O)Nc1ccn([C@@H]2O[C@H](CO)[C@@H](O)C2(F)F)c(=O)n1`
6.51 µM (active)

Complete the entry with Potency for OC1C=C2C3CN(Cc4cc5c(cc43)OCO5)C2CC1O (stereo unspecified)
6.51 µM (active)

Complete the entry with Potency for `Fc1ccc2[nH]ccc2c1-c1nc(N2CCOCC2)c2sc(CN3CCN(CC4CC4)CC3)cc2n1`
18.4 µM (active)

Complete the entry with Potency for `CN1CCN(C2CCN(C(=O)Nc3cc(Oc4ccc(NC(=O)C5(C(=O)Nc6ccc(F)cc6)CC5)c(F)c4)ccn3)CC2)CC1`
13 µM (active)

Complete the entry with Potency for C/C1=C/CCC2=CC(OC2=O)C(C)(C)/C=C/C1=O (stereo unspecified)
1.3 µM (active)

Complete the entry with Potency for C[C@@H]1O[C@@H](O[C@H]2[C@H](OC(=O)[C@]34CCC(C)(C)C[C@H]3C3=CCC5[C@@]6(C)C[C@H](O)[C@H](O[C@@H]7O[C@H](CO)[C@@H](O)[C@H](O)[C@H]7O)[C@](CO)(C(=O)O)C6CC[C@@]5(C)[C@]3(C)C[C@H]4O)OC[C@H](O)[C@@H]2O)[C@H](O)[C@H](O)[C@H]1O[C@@H]1OC[C@@H](O)[C@H](O[C@@H]2OC[C@](O)(CO)[C@H]2O)[C@H]1O (stereo partly specified)
0.692 µM (active)

Complete the entry with Potency for `Cc1cc(Nc2nc(-c3ccccc3)nc3ccccc23)n[nH]1`
7.31 µM (active)

Complete the entry with Potency for C=C1C(=O)O[C@@H]2[C@H]1CC[C@H](C)C(CCC(=O)O)C2(C)O (stereo partly specified)
23.1 µM (active)

Complete the entry with Potency for `CC(C)NCCCn1c(Sc2cc3c(cc2I)OCO3)nc2c(N)ncnc21`
0.184 µM (active)

Complete the entry with Potency for `CCCC1(CCC)CCC2(CCN(CCCN(CC)CC)C2)CC1`
1.84 µM (active)

Complete the entry with Potency for `COc1cc2c(Nc3cc(F)c(Cl)c(Cl)c3)ncnc2cc1OCC1CCCN(C)CCC1`
8.2 µM (active)

Complete the entry with Potency for `CC(C)S(=O)(=O)Nc1ccc(F)c(C(=O)c2c[nH]c3ncc(-c4cccnc4)cc23)c1F`
14.6 µM (active)

Complete the entry with Potency for Cc1cc2c(F)c(Oc3ncnn4cc(OCC(C)OC(=O)C(C)N)c(C)c34)ccc2[nH]1 (stereo unspecified)
6.51 µM (active)

Complete the entry with Potency for `COc1cc(N2CCC(N)CC2)ccc1Nc1ncc(Cl)c(-c2c[nH]c3ccccc23)n1`
4.61 µM (active)

Complete the entry with Potency for `CNC(=O)COC(=O)N1CCC(CCc2ccc(Cl)cc2)CC1`
14.6 µM (active)

Complete the entry with Potency for Cc1nc(NC(=O)N2CCCC2C(N)=O)sc1-c1ccnc(C(C)(C)C(F)(F)F)c1 (stereo unspecified)
10.3 µM (active)

Complete the entry with Potency for CCCCNc1ncc(C(=O)NCc2ccc(-n3ccnc3)cc2)c(NC2CCC(O)CC2)n1 (stereo unspecified)
7.31 µM (active)

Complete the entry with Potency for `N#C/C(=C1\Nc2ccccc2S1)c1ccnc(NCCc2cccnc2)n1`
7.31 µM (active)

Complete the entry with Potency for `COc1cc2c(cc1OC)CN(C(=O)/C=C/c1c(-c3ccccc3)n(C)c3ncccc13)CC2`
7.31 µM (active)
